Reference for the values: the Deep4Chem optical property database

- assay protocol: photoluminescence quantum yield (fraction); solvent given as SMILES
- experimental context: in ClC(Cl)Cl
Entries and their photoluminescence quantum yield
Give a plain numeric answer without units written out.

Some solved entries appear below for comparison.
F[B-]1(F)n2c(cc3oc4ccccc4c32)C(c2ccc(I)cc2)=C2C=c3oc4ccccc4c3=[N+]21 : 0.34
[C-]#[N+]c1ccc(-c2ccc(N(C)C)cc2)cc1 : 0.19
N#Cc1nc(N(Cc2ccc(I)cc2)Cc2ccc(I)cc2)c(C#N)nc1N(Cc1ccc(I)cc1)Cc1ccc(I)cc1 : 0.79

Let us examine a further case.
Data request: Query (compound): `CCCN1c2ccccc2Sc2cc(/C=C\c3cc(=O)oc4cc(NC(=O)OCC)ccc34)ccc21` ; field requested: photoluminescence quantum yield
Data returned: 0.62
